Biological target: human ACC2 (Homo sapiens, UniProt O00763)
Construct: made in house; host or cells: insect cells (baculoviral expression system)
Sequence (O00763 129-2458 limits assumed): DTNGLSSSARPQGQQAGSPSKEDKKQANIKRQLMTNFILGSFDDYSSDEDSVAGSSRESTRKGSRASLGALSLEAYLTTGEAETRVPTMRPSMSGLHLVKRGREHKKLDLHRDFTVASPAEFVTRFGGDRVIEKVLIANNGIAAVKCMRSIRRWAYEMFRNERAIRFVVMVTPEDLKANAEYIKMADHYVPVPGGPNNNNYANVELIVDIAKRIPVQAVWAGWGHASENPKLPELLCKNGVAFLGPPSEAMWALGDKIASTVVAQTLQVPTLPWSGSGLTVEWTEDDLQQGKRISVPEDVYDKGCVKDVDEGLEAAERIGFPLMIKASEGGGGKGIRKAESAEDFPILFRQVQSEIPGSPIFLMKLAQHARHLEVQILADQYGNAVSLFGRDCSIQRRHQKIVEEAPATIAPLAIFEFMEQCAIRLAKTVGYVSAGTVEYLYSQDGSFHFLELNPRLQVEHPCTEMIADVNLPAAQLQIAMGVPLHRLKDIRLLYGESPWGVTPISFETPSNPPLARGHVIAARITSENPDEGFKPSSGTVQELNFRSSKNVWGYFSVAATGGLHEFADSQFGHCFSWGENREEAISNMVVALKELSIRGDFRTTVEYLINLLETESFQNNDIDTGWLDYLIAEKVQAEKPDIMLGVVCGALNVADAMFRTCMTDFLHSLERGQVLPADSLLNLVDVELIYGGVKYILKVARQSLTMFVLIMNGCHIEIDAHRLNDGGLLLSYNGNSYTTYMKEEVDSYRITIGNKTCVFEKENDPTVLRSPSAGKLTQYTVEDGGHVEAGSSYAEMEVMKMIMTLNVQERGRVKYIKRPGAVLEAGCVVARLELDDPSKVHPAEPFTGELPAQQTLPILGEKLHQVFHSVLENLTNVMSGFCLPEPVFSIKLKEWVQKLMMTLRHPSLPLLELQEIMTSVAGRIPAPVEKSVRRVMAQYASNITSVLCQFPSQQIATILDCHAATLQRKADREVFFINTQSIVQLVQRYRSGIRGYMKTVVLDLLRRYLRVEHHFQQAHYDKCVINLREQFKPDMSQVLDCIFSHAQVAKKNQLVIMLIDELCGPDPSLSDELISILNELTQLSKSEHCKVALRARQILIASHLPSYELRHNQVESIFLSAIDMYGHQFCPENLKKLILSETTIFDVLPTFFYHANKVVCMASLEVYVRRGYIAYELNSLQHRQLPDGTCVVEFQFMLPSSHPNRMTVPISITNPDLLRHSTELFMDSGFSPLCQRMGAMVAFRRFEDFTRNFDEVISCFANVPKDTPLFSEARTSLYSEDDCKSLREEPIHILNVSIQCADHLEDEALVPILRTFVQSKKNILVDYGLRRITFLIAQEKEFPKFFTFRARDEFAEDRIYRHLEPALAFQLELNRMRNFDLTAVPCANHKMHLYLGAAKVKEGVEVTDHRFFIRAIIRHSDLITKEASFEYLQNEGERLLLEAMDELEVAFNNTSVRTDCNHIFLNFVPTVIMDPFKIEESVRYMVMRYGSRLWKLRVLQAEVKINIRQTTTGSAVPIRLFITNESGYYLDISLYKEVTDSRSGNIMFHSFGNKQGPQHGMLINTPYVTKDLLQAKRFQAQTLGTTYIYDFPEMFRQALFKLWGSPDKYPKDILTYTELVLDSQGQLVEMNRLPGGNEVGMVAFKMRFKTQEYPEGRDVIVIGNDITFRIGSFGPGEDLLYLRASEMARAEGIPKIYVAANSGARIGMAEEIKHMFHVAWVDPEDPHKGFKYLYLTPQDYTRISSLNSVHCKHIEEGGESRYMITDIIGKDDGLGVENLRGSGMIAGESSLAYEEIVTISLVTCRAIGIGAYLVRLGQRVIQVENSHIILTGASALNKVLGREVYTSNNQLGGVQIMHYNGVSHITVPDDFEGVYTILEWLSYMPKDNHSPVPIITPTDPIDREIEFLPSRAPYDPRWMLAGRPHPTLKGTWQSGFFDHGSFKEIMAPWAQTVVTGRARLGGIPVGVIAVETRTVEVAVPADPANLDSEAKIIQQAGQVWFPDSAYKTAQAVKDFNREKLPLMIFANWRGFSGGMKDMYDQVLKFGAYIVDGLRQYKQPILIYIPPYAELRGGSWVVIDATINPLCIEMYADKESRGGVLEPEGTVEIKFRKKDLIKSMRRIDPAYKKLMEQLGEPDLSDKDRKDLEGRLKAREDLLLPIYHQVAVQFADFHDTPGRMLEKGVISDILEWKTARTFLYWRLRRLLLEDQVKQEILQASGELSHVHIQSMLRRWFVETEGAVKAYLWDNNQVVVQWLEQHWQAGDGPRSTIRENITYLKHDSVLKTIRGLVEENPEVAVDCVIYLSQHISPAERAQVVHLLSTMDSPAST
Test: ACC2 assay, spectrophotometric 384 well assay (NADH-linked, coupled lactate dehydrogenase/pyruvate kinase)
Format: biochemical
Settings: ACC2 assay, hACC2 construct lacking 128 N-terminal amino acids, 25° C., 340 nm; read-out: IC50
reportedEndpoint: IC50 (nM)

# annotated cases, reported IC50 shown
- compound: "CC(=O)N[C@@H](C)c1ccc(C2CCN(c3ncc(-c4ccc(C)c(C)c4)cn3)CC2)cc1 [Example 10.47]"
  dataValue: 270
- compound: "CC(=O)N[C@@H](C)c1ccc(C2CCN(c3ccc(C(F)(F)F)nc3)CC2)cc1 [Example 15.8]"
  dataValue: 8400
- compound: "CCCOc1ccc(N2CCC(c3ccc([C@H](C)NC(=O)C4CC4)cc3)CC2)nc1 [Example 5.57]"
  dataValue: 230

I. CC(C)COc1ccc(N2CCC(c3ccc([C@H](C)NC(=O)N(C)C)cc3)CC2)cc1 [Example 1.122]
II. CC(=O)N[C@@H](C)c1ccc(C2CCN(c3ccc(OCC4CCC4)c(Cl)c3)CC2)cc1 [Example 9.45]
III. CC(=O)N[C@@H](C)c1ccc(C2CCN(c3ccc(OCC4CCO4)c(Cl)c3)CC2)cc1 (some centres unmarked) [Example 8.50]
IV. CC(=O)N[C@@H](C)c1ccc(C2CCN(c3cc(Oc4ccc(F)cc4)ncn3)CC2)cc1 [Example 11.5]
V. CCOc1ccc(N2CCC(c3ccc([C@H](C)NC(=O)C4CC4)cc3)CC2)c(OCC)c1 [Example 1.121]
Please list these in order of increasing IC50. Thank you! API: response body holds the labels in the requested order.
I, IV, II, III, V

----------
Biological target: human ACC2 (Homo sapiens)
Construct: made in house; host or cells: insect cells (baculoviral expression system)
Assay: ACC2 assay, spectrophotometric 384 well assay (NADH-linked, coupled lactate dehydrogenase/pyruvate kinase)
Type: biochemical
Conditions: ACC2 assay, hACC2 construct lacking 128 N-terminal amino acids, 25° C., 340 nm; read-out: IC50
pIC50: −log10 of the molar value.
reportedEndpoint: pIC50

Some entries whose results are on file:
- molecule: "CC(=O)N[C@@H](C)c1ccc(C2CCN(c3ncc(I)cn3)CC2)cc1"
  dataValue: 6.39
- molecule: "CC(=O)N[C@@H](C)c1ccc(C2CCN(c3ncc(C(=O)N(C)C4CCS(=O)(=O)C4)cn3)CC2)cc1 (some centres unmarked)"
  dataValue: 4.68
- molecule: "CCOc1ccc(N2CCC(c3ccc([C@H](C)NC(=O)Nc4ncccn4)cc3)CC2)cc1"
  dataValue: 4.83
- molecule: "CC(=O)N[C@@H](C)c1ccc(C2CCN(c3ccc(Oc4ccccc4)nc3)CC2)cc1"
  dataValue: 6.44
- molecule: "CC(=O)N[C@@H](C)c1ccc(C2CCN(c3cc(Cl)ccn3)CC2)cc1"
  dataValue: 5.52

P. CCC(=O)N[C@@H](C)c1ccc(C2CCN(c3ccnc(Oc4ccccc4)c3)CC2)cc1
Q. CC(=O)N[C@@H](C)c1ccc(C2CCN(c3cc(NC(C)c4ccccc4)ncn3)CC2)cc1 (some centres unmarked)
R. CC(C)Oc1cc(N2CCC(c3ccc([C@H](C)NC(=O)C4CC4)cc3)CC2)ccn1
S. CC(=O)N[C@@H](C)c1ccc(C2CCN(c3ncc(-c4cnc(C#N)nc4)cn3)CC2)cc1
// smallest pIC50 at index 0, largest at the end Give the labels in the order requested.
Q, S, P, R

P. CC(=O)N[C@@H](C)c1ccc(C2CCN(c3ccc(-c4ccc(F)cc4)cn3)CC2)cc1
Q. CC(=O)N[C@@H](C)c1ccc(C2CCN(c3ncc(C(=O)N4CCCC4)cn3)CC2)cc1
R. CCOc1ccc(N2CCC(c3ccc([C@H](C)NC(=O)C4CC4(F)F)cc3)CC2)cc1 (some centres unmarked)
S. CC(=O)N[C@@H](C)c1ccc(C2CCN(c3noc(C(C)C)n3)CC2)cc1
T. COc1ncc(N2CCC(c3ccc([C@H](C)NC(C)=O)cc3)CC2)cn1
Rank ascending by pIC50. Output the labels ranked as instructed.
T, Q, S, R, P

I. CC(=O)N[C@@H](C)c1ccc(C2CCN(c3ncc(CC(C)C)cn3)CC2)cc1
II. CC(=O)N[C@@H](C)c1ccc(C2CCN(c3ncc(-c4ccc(C(F)(F)F)cc4)cn3)CC2)cc1
III. CC(=O)N[C@@H](C)c1ccc(C2CCN(c3ccnc(NCc4ccccc4)n3)CC2)cc1
IV. COc1ccc(Nc2nccc(N3CCC(c4ccc([C@H](C)NC(C)=O)cc4)CC3)n2)cc1
Ascending by pIC50, please. Rank the items, then write their labels in that order.
IV, III, II, I
(IV: 5.43, III: 5.64, II: 5.96, I: 6.47)

----------
Molecular target: human ACC2 (Homo sapiens, UniProt O00763)
Construct: made in house; host or cells: insect cells (baculoviral expression system)
Assay: ACC2 assay, spectrophotometric 384 well assay (NADH-linked, coupled lactate dehydrogenase/pyruvate kinase)
Format: biochemical
Conditions: ACC2 assay, hACC2 construct lacking 128 N-terminal amino acids, 25° C., 340 nm; read-out: IC50
reportedEndpoint: IC50 (nM)

Consider the reported IC50 for these compounds:
- compound: "CCOc1ccc(N2CCC(c3ccc([C@H](C)NC(=O)N(C)C(C)C)cc3)CC2)cc1"
  measuredOn: "human ACC2 (Homo sapiens, UniProt O00763)"
  IC50, nM: 4900
- compound: "C[C@H](NC(=O)C1CC1)c1ccc(C2CCN(c3ccc4c(c3)OCCO4)CC2)cc1"
  measuredOn: "human ACC2 (Homo sapiens, UniProt O00763)"
  IC50, nM: 260
- compound: "CC(=O)N[C@@H](C)c1ccc(C2CCN(c3ncc(C(=O)NCc4ccccc4)cn3)CC2)cc1"
  measuredOn: "human ACC2 (Homo sapiens, UniProt O00763)"
  IC50, nM: 2200
- compound: "CCC(=O)N[C@@H](C)c1ccc(C2CCN(c3ccc(OCC4CC4(F)F)cc3)CC2)cc1 (stereo partly shown)"
  measuredOn: "human ACC2 (Homo sapiens, UniProt O00763)"
  IC50, nM: 80
- compound: "CCOc1ccc(N2CCC(c3ccc([C@H](C)NC(=O)Nc4cccnc4)cc3)CC2)cc1"
  measuredOn: "human ACC2 (Homo sapiens, UniProt O00763)"
  IC50, nM: 1700

1. CC(=O)N[C@@H](C)c1ccc(C2CCN(c3ncc(-c4ccc(OC(C)C)c(C)c4)cn3)CC2)cc1
2. CCc1cnc(N2CCC(c3ccc([C@H](C)NC(C)=O)cc3)CC2)nc1
3. CC(=O)N[C@@H](C)c1ccc(C2CCN(c3ccc(OCC4CCC4)cc3)CC2)cc1
Could you please order the items by IC50, going from the lowest number to the highest? Answer by writing out the labels in the requested order.
3, 2, 1
(3: 60 nM, 2: 530 nM, 1: 1300 nM)

----------
Molecular target: human ACC2 (Homo sapiens)
Construct: made in house; host or cells: insect cells (baculoviral expression system)
Assay: ACC2 assay, spectrophotometric 384 well assay (NADH-linked, coupled lactate dehydrogenase/pyruvate kinase)
Assay type: biochemical
Conditions: ACC2 assay, hACC2 construct lacking 128 N-terminal amino acids, 25° C., 340 nm; read-out: IC50
pIC50: −log10 of the molar value.
reportedEndpoint: pIC50

Here is how some compounds turned out for pIC50.
- compound: "CC(=O)N[C@@H](C)c1ccc(C2CCN(c3ncc(-c4cncc(F)c4)cn3)CC2)cc1"
  measuredOn: "human ACC2 (Homo sapiens)"
  reportedEndpoint: "pIC50"
  dataValue: 6.57
- compound: "CC(=O)N[C@@H](C)c1ccc(C2CCN(c3ccnc(OCc4ccc(F)cc4)c3)CC2)cc1"
  measuredOn: "human ACC2 (Homo sapiens)"
  reportedEndpoint: "pIC50"
  dataValue: 6.40
- compound: "CC(=O)N[C@@H](C)c1ccc(C2CCN(c3cc(N(C)C4CCCC4)ncn3)CC2)cc1"
  measuredOn: "human ACC2 (Homo sapiens)"
  reportedEndpoint: "pIC50"
  dataValue: 6.48

P. CC(=O)N[C@@H](C)c1ccc(C2CCN(c3ncc(C(=O)N4Cc5cccnc5C4)cn3)CC2)cc1
Q. CCCOc1cnc(N2CCC(c3ccc([C@H](C)NC(=O)C4CC4)cc3)CC2)nc1
Select one: P or Q . Criterion: greater recorded pIC50. Bench note: the answer is the label of the chosen record.
Q

----------
Target: human ACC2 (Homo sapiens, UniProt O00763)
Construct: made in house; host or cells: insect cells (baculoviral expression system)
Test: ACC2 assay, spectrophotometric 384 well assay (NADH-linked, coupled lactate dehydrogenase/pyruvate kinase)
Type: biochemical
Details: ACC2 assay, hACC2 construct lacking 128 N-terminal amino acids, 25° C., 340 nm; read-out: IC50
reportedEndpoint: IC50 (nM)

P. CCCNc1cc(N2CCC(c3ccc([C@H](C)NC(C)=O)cc3)CC2)ncn1
Q. CC(=O)N[C@@H](C)c1ccc(C2CCN(c3ncc(-c4ccc(F)cc4)cn3)CC2)cc1
Smaller IC50 value, P vs Q ? Please respond with the label that marks your chosen entry.
Q
(Q: 20 nM, P: 7100 nM)

A. CCCOc1ccc(N2CCC(c3ccc([C@H](C)NC(C)=O)cc3)CC2)cn1
B. CCOc1ccc(N2CCC(c3ccc([C@H](C)NC(=O)c4ccnnc4)cc3)CC2)cc1
// max by IC50 over [ A , B ] Give the label under which the chosen entry appears.
B

a. CCCCOc1cccc(N2CCC(c3ccc([C@H](C)NC(C)=O)cc3)CC2)c1
b. CCOc1ccc(N2CCC(c3ccc([C@H](C)NC(C)=O)cc3)CC2)cc1OCC
Exercise: compare a and b ; which one has the greater IC50? Kindly state the label of the option you pick.
b
(b: 2900 nM, a: 330 nM)

Origin of the recorded values: patent US9006450B2
